Where do these numbers come from? They come from ChEMBL document CHEMBL2062460.

# System: Staphylococcus aureus
# Test: Antibacterial activity against Staphylococcus aureus ATCC 25923 after 18 hrs by twofold serial agar dilution technique
# Type: functional
# Particulars: ATCC 25923, 18 h
Measure name: MIC (mg/L)
Numbers only; they are read as mg/L.

// known answers, use as guide
| Query smiles | Tested target | Numeric value |
| --- | --- | --- |
| S=C(Nc1ccc(I)cc1)Nc1nc[nH]n1 | Staphylococcus aureus | 25 |
| S=C(Nc1ccc(Cl)cc1)Nc1nc[nH]n1 | Staphylococcus aureus | 25 |
| S=C(Nc1ccccc1)Nc1nc[nH]n1 | Staphylococcus aureus | 100 |
| O=C(O)c1cn(C2CC2)c2cc(N3CCNCC3)c(F)cc2c1=O | Staphylococcus aureus | 0.5 |
| Fc1cccc(NC(=S)Nc2nc[nH]n2)c1 | Staphylococcus aureus | 50 |
| S=C(Nc1ccc(Br)cc1)Nc1nc[nH]n1 | Staphylococcus aureus | 50 |

Fc1ccc(NC(=S)Nc2nc[nH]n2)cc1 has a reported MIC of 50

According to the records, this compound S=C(Nc1nc[nH]n1)Nc1ccccc1Br displays MIC of 50

Note to self: MIC recorded for Fc1ccccc1NC(=S)Nc1nc[nH]n1 was 200
